Target: Glucocorticoid receptor (Homo sapiens) (UniProt P04150)
Sequence (P04150 whole entry, looked up): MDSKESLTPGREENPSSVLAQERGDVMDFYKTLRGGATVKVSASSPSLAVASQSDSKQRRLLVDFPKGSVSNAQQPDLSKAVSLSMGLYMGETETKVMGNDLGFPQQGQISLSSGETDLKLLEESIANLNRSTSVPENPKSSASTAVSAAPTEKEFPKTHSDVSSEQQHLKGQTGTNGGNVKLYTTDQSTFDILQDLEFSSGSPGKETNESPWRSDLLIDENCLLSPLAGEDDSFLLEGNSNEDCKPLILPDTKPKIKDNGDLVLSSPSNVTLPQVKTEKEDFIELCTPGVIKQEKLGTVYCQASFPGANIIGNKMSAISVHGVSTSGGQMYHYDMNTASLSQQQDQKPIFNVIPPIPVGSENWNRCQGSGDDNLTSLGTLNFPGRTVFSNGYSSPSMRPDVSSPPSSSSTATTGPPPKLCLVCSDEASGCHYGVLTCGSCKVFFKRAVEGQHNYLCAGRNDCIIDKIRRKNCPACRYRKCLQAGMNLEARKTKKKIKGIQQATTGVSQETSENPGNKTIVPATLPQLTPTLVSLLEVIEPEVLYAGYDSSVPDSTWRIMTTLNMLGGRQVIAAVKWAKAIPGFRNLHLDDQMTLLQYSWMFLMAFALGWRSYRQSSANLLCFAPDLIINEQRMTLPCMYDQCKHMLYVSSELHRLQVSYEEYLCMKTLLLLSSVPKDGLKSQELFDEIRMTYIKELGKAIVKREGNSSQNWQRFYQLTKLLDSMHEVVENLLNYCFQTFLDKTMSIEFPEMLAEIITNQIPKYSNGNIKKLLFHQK
Experiment: GR-GFP Redistribution (AID 450); note: potency is the fitted concentration of half-maximal effect
Conditions: U2OS GR-GFP nuclear translocation, laser cytometry, 2 h
Calls of active or inactive are those of the source.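 Rule for the calls: active = compounds whose dose series gives a full or clear partial fitted curve of increased nuclear translocation; inconclusive = weak partial curve or effect only at the top dose; inactive = no dose-dependent translocation response.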
PARAMETER_MEASURED: Potency

Would you please look over these solved cases?
                                   compound  parameter_measured                result
0  Clc1ccc(COC(Cn2ccnc2)c2ccc(Cl)cc2Cl)cc1 (centres undefined)             Potency  > 20.6 µM (inactive)
1    CNCC(O)c1ccc(O)cc1 (centres undefined)             Potency  > 20.6 µM (inactive)
2  NCC(CC(=O)O)c1ccc(Cl)cc1 (centres undefined)             Potency  > 20.6 µM (inactive)
3                NP(N)(=O)NC(=O)c1ccc(F)cc1             Potency    > 46 µM (inactive)
4       O=[N+]([O-])c1cc([As](=O)(O)O)ccc1O             Potency  > 20.6 µM (inactive)

Parameters: items (list). Returns: Potency for each item.
1. CCN(CC)C(=O)N[C@@H]1C=C2c3cccc4[nH]cc(c34)C[C@@H]2N(C)C1
2. c1ccc(C2CC2)c(OCC2=NCCN2)c1
3. CN(C)[C@@H]1C(=O)C(C(N)=O)=C(O)[C@@]2(O)C(=O)C3=C(O)c4c(O)cccc4[C@@](C)(O)[C@H]3C[C@@H]12
4. CN(C)CCN(C)CCc1ccc(Cl)c(Cl)c1
5. Clc1cccc(N2CCNCC2)c1
6. COC1(CS(=O)c2ccccc2)CCN(CCc2c[nH]c3ccc(F)cc23)CC1 (centres undefined)
7. C=C1CC[C@@]2(O)[C@H]3Cc4ccc(O)c5c4[C@@]2(CCN3CC2CC2)[C@H]1O5

RESULT:
1: > 46 µM (inactive); 2: > 46 µM (inactive); 3: > 20.6 µM (inactive); 4: > 46 µM (inactive); 5: > 46 µM (inactive); 6: > 46 µM (inactive); 7: > 20.6 µM (inactive)

Fill in Potency for each of the 2 compounds listed.
1. Cc1ccc(S(=O)(=O)N[C@@H](CCCCN)C(=O)CCl)cc1
2. CC(CCc1ccccc1)NC(C)C(O)c1ccc(O)cc1 (centres undefined)

RESULT:
["> 46 µM (inactive)", "> 20.6 µM (inactive)"]
